Ref: patent US10479780B2

The entries below come with measured IC50 values attached.
- assay system: human Lck enzyme (Homo sapiens, UniProt P06239)
- Construct: purchased Carna Biosciences, Inc. 08-170
- Sequence (P06239 whole entry): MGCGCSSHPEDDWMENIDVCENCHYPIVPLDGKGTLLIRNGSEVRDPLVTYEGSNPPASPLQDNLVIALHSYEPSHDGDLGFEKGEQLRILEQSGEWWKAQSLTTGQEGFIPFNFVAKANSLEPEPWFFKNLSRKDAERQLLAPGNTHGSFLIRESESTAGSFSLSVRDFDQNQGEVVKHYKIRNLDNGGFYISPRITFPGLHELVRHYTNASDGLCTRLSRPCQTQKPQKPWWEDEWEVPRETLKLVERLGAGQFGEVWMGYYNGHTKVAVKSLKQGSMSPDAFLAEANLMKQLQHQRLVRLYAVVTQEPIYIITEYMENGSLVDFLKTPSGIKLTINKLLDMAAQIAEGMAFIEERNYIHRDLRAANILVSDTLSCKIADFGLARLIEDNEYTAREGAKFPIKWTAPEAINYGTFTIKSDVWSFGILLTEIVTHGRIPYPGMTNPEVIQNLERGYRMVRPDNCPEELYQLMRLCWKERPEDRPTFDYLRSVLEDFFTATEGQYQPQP
- procedure text: Lck enzyme inhibitory activity (time-resolved fluorometry, biotinylated peptide phosphorylation)
- Type: biochemical
- stated conditions: biotinylated peptide phosphorylation, read-out: LCK_IC50
- Procedure: 3. Lck Enzyme Inhibitory Activity Lck inhibitory activity was determined based on activity of inhibiting phosphorylation reaction of a biotinylated peptide (EGPWLEEEEEAYGWMDF) using a human Lck enzyme (manufactured by Carna Biosciences, Inc., cat 08-170). The phosphorylated biotinylated peptide was detected by time-resolved fluorometry using an anti-phosphorylated tyrosine antibody conjugated to europium cryptate, and streptavidin conjugated to XL665, an allophycocyanin derivative. […]
Respond with the bare value in nM.

The examples below pair each entry with its known result.
[
  {
    "molecule": "Cc1cc(Oc2ccc(F)cc2)ncc1-n1ncc(C(=O)c2cc3cc(F)c(NS(=O)(=O)CCCF)cc3[nH]2)c1N [Example 4-2-027]",
    "IC50, nM": 30
  },
  {
    "molecule": "Cc1cc2cc(C(=O)c3cnn(-c4cnc(Oc5ccccc5C)cc4C)c3N)[nH]c2cc1NS(C)(=O)=O [Example 4-2-065]",
    "IC50, nM": 18
  },
  {
    "molecule": "Cc1cc(Oc2ccccc2F)ccc1-n1ncc(C(=O)c2cc3cc(OCC(F)F)c(N4CCOCC4)cc3[nH]2)c1N [Example 4-1-015]",
    "IC50, nM": 10
  },
  {
    "molecule": "Cc1cc(Oc2c(F)cccc2F)ncc1-n1ncc(C(=O)c2cc3cc(F)c(NS(=O)(=O)c4cncc(Cl)c4)cc3[nH]2)c1N [Example 5-1-543]",
    "IC50, nM": 360
  },
  {
    "molecule": "Cc1cc(Oc2c(F)cccc2F)ncc1-n1ncc(C(=O)c2cc3cc(OC(F)F)c(N4CCC(N5CCOCC5)CC4)cc3[nH]2)c1N [Example 4-25-031]",
    "IC50, nM": 7.2
  },
  {
    "molecule": "Cc1cc(Oc2c(F)cccc2F)ncc1-n1ncc(C(=O)c2cc3cc(F)c(NS(=O)(=O)c4cccc(C#N)n4)cc3[nH]2)c1N [Example 5-1-538]",
    "IC50, nM": 140
  },
  {
    "molecule": "Cc1cc(Oc2c(F)cccc2F)ncc1-n1ncc(C(=O)c2cc3cc(F)c(NS(C)(=O)=O)cc3[nH]2)c1N [Example 4-2-031]",
    "IC50, nM": 4.3
  },
  {
    "molecule": "Cc1cc(Oc2c(F)cccc2F)ncc1-n1ncc(C(=O)c2cc3cc(N4CCOCC4)c(NS(C)(=O)=O)cc3[nH]2)c1N [Example 4-24-018]",
    "IC50, nM": 27
  },
  {
    "molecule": "Cc1cc(Oc2ccccc2F)ccc1-n1ncc(C(=O)c2cc3cc(OCC(F)F)c(NS(=O)(=O)c4cccnc4)cc3[nH]2)c1N [Example 5-1-418]",
    "IC50, nM": 21
  },
  {
    "molecule": "Cc1cc(Oc2cccc(F)c2F)cc(F)c1-n1ncc(C(=O)c2cc3cc(Cl)c(NS(C)(=O)=O)cc3[nH]2)c1N [Example 4-2-080]",
    "IC50, nM": 68
  }
]

Req: Given the entry Cc1cc(Oc2c(F)cccc2F)ncc1-n1ncc(C(=O)c2cc3cc(OCC(F)F)c(NS(=O)(=O)c4cccc(F)n4)cc3[nH]2)c1N [Example 5-1-570] , what IC50 was observed with human Lck enzyme (Homo sapiens, UniProt P06239)?
Resp: 9.6

Req: Try Cc1cc(Oc2ccccc2F)ccc1-n1ncc(C(=O)c2cc3cc(OCC(F)F)c(N4CCC(N5CCOCC5)CC4)cc3[nH]2)c1N [Example 4-25-028] next.
Resp: 4.9

Req: Try Cc1cc(Oc2cccc(Cl)c2)ncc1-n1ncc(C(=O)c2cc3cc(F)c(NS(=O)(=O)CCCF)cc3[nH]2)c1N [Example 4-2-026] next.
Resp: 37

Req: Try Cc1cc(Oc2ccccc2F)ncc1-n1ncc(C(=O)c2cc3cc(OC(F)F)c(N4C(=O)NC(C)(C)C4=O)cc3[nH]2)c1N [Example 5-1-402] next.
Resp: 8.2

Req: Try COc1cc2cc(C(=O)c3cnn(-c4c(C)cc(Oc5ccccc5)cc4F)c3N)[nH]c2cc1NS(C)(=O)=O [Example 4-1-007] next.
Resp: 7.5

Req: Try Cc1cc(Oc2ccccc2F)cc(F)c1-n1ncc(C(=O)c2cc3cc(OC(F)F)c(NC4CCN(S(C)(=O)=O)CC4)cc3[nH]2)c1N [Example 4-23-012] next.
Resp: 31

Req: Try Cc1cc2cc(C(=O)c3cnn(-c4ccc(Oc5ccccc5F)cc4C)c3N)[nH]c2cc1N1C(=O)N[C@@H](C)C1=O [Example 5-1-444] next.
Resp: 3.9

Req: Try Cc1cnc(F)c(S(=O)(=O)Nc2cc3[nH]c(C(=O)c4cnn(-c5ccc(Oc6ccccc6F)cc5C)c4N)cc3cc2F)c1 [Example 5-1-522] next.
Resp: 120

Req: Try COCCNS(=O)(=O)Nc1cc2[nH]c(C(=O)c3cnn(-c4ccc(Oc5ccccc5F)cc4C)c3N)cc2cc1F [Example 4-5-007] next.
Resp: 18

Req: Try Cc1cc(Oc2c(F)cccc2F)ncc1-n1ncc(C(=O)c2cc3cc(F)c(NS(=O)(=O)CCCF)cc3[nH]2)c1N [Example 4-2-021] next.
Resp: 8.6

Req: Try Cc1cc2cc(C(=O)c3cnn(-c4ccc(Oc5cccc(F)c5F)cc4C)c3N)[nH]c2cc1NS(=O)(=O)CCCF [Example 4-2-069] next.
Resp: 22

Req: Try Cc1cc(Oc2c(F)cccc2F)ncc1-n1ncc(C(=O)c2cc3cc(OC(F)F)c(NS(=O)(=O)CCCF)cc3[nH]2)c1N [Example 4-24-012] next.
Resp: 28

Req: Try Cc1cc(Oc2ccccc2F)cc(F)c1-n1ncc(C(=O)c2cc3cc(OCC(F)F)c(NS(=O)(=O)CCCF)cc3[nH]2)c1N [Example 4-24-026] next.
Resp: 21

Req: Try Cc1cc(Oc2ccccc2F)ccc1-n1ncc(C(=O)c2cc3cc(F)c(NS(=O)(=O)c4cccc(C#N)n4)cc3[nH]2)c1N [Example 5-1-537] next.
Resp: 57

Req: Try Cc1cc2cc(C(=O)c3cnn(-c4cnc(Oc5c(F)cccc5F)cc4C)c3N)[nH]c2cc1NS(=O)(=O)C1CC1 [Example 4-1-017] next.
Resp: 4.9
